experiment: yeast display, Sf9 membrane polyspecificity reagent, FACS + sequencing; frameworks hold sequencing errors
property: polyreactivity (PSR sort gate)

Guide cases for polyreactivity (PSR sort gate), answers given:
QVQLVESGVGLVQAGGSLRLSCADSGSIFVINAMGWYRQASGKERELVATIRARAGSTYYADSVKGRFTISRDNAKNTVYLQMNSLKPEDTAFYYCAARLKSYRVEYWGQGTQVTVSS	high polyreactivity
QVQLVESGGGLVQAGGSLRLSCAASGRIFYVYAMGWYRQAPGKEMELVATITSSGEGTYYADSVMGRFTISRDNAKNTVYLQMNSLKPEDTAVYYCARRYFVRFVHPPYYYWGQGTQVTVSS	low polyreactivity
QVQLVESGGGLVQARGSLRLSCAASGSIFGKNVMGWYRQAPGKERELVAAISRSGGRTYYADSVKGRFTISRDNAKNTVYLQMNSLKPEDTAVYYCAADGQPIGQQTYDYWGQGTQVTVSS	high polyreactivity
QVQLVESGGGLVQAGGSLRLSCAASGFIFAWNAMGWYRQAPGKERELVASISSGGGSTYYADSVKGRFTISRDNAKNTVYLQMNSLKPEDTAVYYCAASYAYLRGLHYYKYDSWGQGTQVTVSS	low polyreactivity
QVQLVESGGGLVQAGGSLRLSCAASGSIFEWYAMGWYRQAPGKASALVAAISSGGRTYYADSVKGRFTISRDNAKNTVYLQMISLKPEDTAVYYCAARDVDHVGGSKYYYWGLGTQVTVSS	high polyreactivity

Challenge: Tell me the measured polyreactivity (PSR sort gate) of QVQLVESGGGLVQAGGSLRLSCAASGLILYTYAMGWYRQAPGKERELVAAINSGGRTYYADSVKGRFTISRDNAKNTVYLQMNSLKPEDTAVYYCAADYGSRVRGFNYWGQGTQVTVSS , please.
Response given: low polyreactivity

Challenge: Fill in: polyreactivity (PSR sort gate) of QVQLVESGRGLVQAGGSLRLSCAASGYTFSNYGMGWYRQAPGKERELVAGIILGGSSTYYADSVKGRFTISRDNAKNTVYLQMNSLKPEDTAVYYCAAYVTGRYDWGQGTQVTVSS is ___
Response given: high polyreactivity

Challenge: Which polyreactivity (PSR sort gate) is listed for QVQLVESGGGLVQAGGSLRLSCAASGRTSASNAMGWYREAPGKERELVATIDGIDGNTYYADSVKGRFTISRDNAKNTVYLQMNSLKPEDTAVYYCNVESWRLQAIYKYSYWGQGTQVTVSS ?
Response given: low polyreactivity

Challenge: Query: polyreactivity (PSR sort gate); subject: QVQLVESGGGLVQARGSLRLSCAASGRIFLINGMGWYRQAPGKERELVAVITQSGGTYYADSVKGRFTISRDNAKNTVYLQMNSLKPEDTAVYYFAASSYGASRGYWGQGTQVTVSS
Response given: high polyreactivity

Challenge: For QVQLVESGGGLDQAGGSLRLSCAASGSTFVGYAMGWYRQAPGKERELVAAISGSGTSTYYADSVKGRFTISRDNAKNTVYLQMNSLKPEDTAVYYCNADPIFVYSSYNYWGQGTQVTVSS , what is its reported polyreactivity (PSR sort gate)?
Response given: low polyreactivity

Challenge: // query polyreactivity (PSR sort gate) value for entry QVQLVESGGGLVQAGGSLRLSCVASGFTFIRYAMGWYRQAPGKERELVASITRGGSTYYADSVKGRFTISRDNAKYTVYLQMNSLKPEDTAVYYCATTSYYGYDYWGQGTQVTVSS
Response given: high polyreactivity
